Provide the recorded GI50 for the entries that follow.
# Test system: NCI-H460
# protocol: NCI tumour cell line growth inhibition, 48 h
Activity calls are given as the source filed them. Rule as the data show it: active = GI50 up to about 1.1 µM and inactive = higher.

Record excerpt, results attached:
CC(C)(C)C1CCC(CI)(N=[N+]=[N-])CC1 (stereo unspecified) ... > 100 µM (inactive)
CSc1nc(C)c2c(n1)N(c1ccc(Cl)cc1)CC2 ... > 100 µM (inactive)
CCCCCCCCCCCCCCCCCCOCC(O)CO (stereo unspecified) ... > 20.2 µM (inactive)

List the reported GI50 of each compound below.
1. COCC(=O)OC1CCn2c1nc1c2C(=O)C(C)=C(NC(C)=O)C1=N (stereo unspecified)
2. O=C1N(Cc2ccccc2)C2CSCC2N1Cc1ccccc1 (stereo unspecified)
3. CN1CCc2ccccc2C1Cc1ccccc1NC(=O)c1sc2ccccc2c1Cl (stereo unspecified)

["14 µM (inactive)", "18.3 µM (inactive)", "> 100 µM (inactive)"]

# per-item lookup of GI50; items listed below
1. O=C1/C(=C/c2cccc([N+](=O)[O-])c2)COc2ccc(Br)cc21
2. CNC(N)NC
3. O=C1C(/N=N/c2ccc(-c3nc4ccccc4[nH]3)cc2)NC(=S)N1c1ccccc1 (stereo unspecified)
4. COc1cc(/C=N/n2c(Cc3ccc(Cl)cc3)n[nH]c2=O)cc(OC)c1OC
5. C(#C[C@@]12CCC[C@@H]1NCO2)c1ccc2c(c1)OCO2

["> 100 µM (inactive)", "> 100 µM (inactive)", "56.9 µM (inactive)", "33.5 µM (inactive)", "50.9 µM (inactive)"]

From: ChEMBL document CHEMBL1201862
